assay_notes: Plasma pharmacokinetics of DEBIO1143 in patients (LC-MS/MS)
Format: in vivo, human
setup_conditions: human, plasma, oral, 120 mg, day 5, n=3, mean (SD); read-out: T 1/2 (converted)
measured_quantity: half-life (h)
Numbers only, in h.

Can you look up the measured half-life of CN[C@@H](C)C(=O)N[C@H]1CN(C(=O)CC(C)C)CC[C@H]2CC[C@@H](C(=O)NC(c3ccccc3)c3ccccc3)N2C1=O [DEBIO1143] for me? 2.61

* * *

assay_notes: Plasma pharmacokinetics of DEBIO1143 in patients (LC-MS/MS)
Assay type: in vivo, human
setup_conditions: human, plasma, oral, 20 mg, day 5, n=1; read-out: T max
measured_quantity: Tmax (min)
Give bare numbers, in min.

Looking for the measured Tmax of CN[C@@H](C)C(=O)N[C@H]1CN(C(=O)CC(C)C)CC[C@H]2CC[C@@H](C(=O)NC(c3ccccc3)c3ccccc3)N2C1=O , can you help? 30

* * *

assay_notes: Plasma pharmacokinetics of DEBIO1143 in patients (LC-MS/MS)
Assay type: in vivo, human
setup_conditions: human, plasma, oral, 900 mg, day 1, n=6, mean (SD)
measured_quantity: AUC(0-t) (ng·h/mL)
Answers are plain numbers, in ng·h/mL.

What value of AUC(0-t) has been reported for the following compound? CN[C@@H](C)C(=O)N[C@H]1CN(C(=O)CC(C)C)CC[C@H]2CC[C@@H](C(=O)NC(c3ccccc3)c3ccccc3)N2C1=O [DEBIO1143] 56100

* * *

assay_notes: Plasma pharmacokinetics of DEBIO1143 in patients (LC-MS/MS)
Format: in vivo, human
setup_conditions: human, plasma, oral, 80 mg, day 1, n=3, mean (SD)
measured_quantity: AUC(0-t) (µg·h/mL)
Numbers only, in µg·h/mL.

Suppose we examine the compound CN[C@@H](C)C(=O)N[C@H]1CN(C(=O)CC(C)C)CC[C@H]2CC[C@@H](C(=O)NC(c3ccccc3)c3ccccc3)N2C1=O [DEBIO1143] ; what AUC(0-t) value has been reported? 6.39

* * *

assay_notes: Plasma pharmacokinetics of DEBIO1143 in patients (LC-MS/MS)
Format: in vivo, human
setup_conditions: human, plasma, oral, 400 mg, day 1, n=3, median (min–max); read-out: T max
measured_quantity: Tmax
Don't forget the unit after the value.

What value of measured Tmax is listed for CN[C@@H](C)C(=O)N[C@H]1CN(C(=O)CC(C)C)CC[C@H]2CC[C@@H](C(=O)NC(c3ccccc3)c3ccccc3)N2C1=O ? 1 h

* * *

assay_notes: Plasma pharmacokinetics of DEBIO1143 in patients (LC-MS/MS)
Type: in vivo, human
setup_conditions: human, plasma, oral, 20 mg, day 5, n=1; read-out: T 1/2 (converted)
measured_quantity: half-life (h)
Give bare numbers, in h.

Would you mind telling me what half-life value was observed for CN[C@@H](C)C(=O)N[C@H]1CN(C(=O)CC(C)C)CC[C@H]2CC[C@@H](C(=O)NC(c3ccccc3)c3ccccc3)N2C1=O ? 3.37

* * *

assay_notes: Plasma pharmacokinetics of DEBIO1143 in patients (LC-MS/MS)
Assay type: in vivo, human
setup_conditions: human, plasma, oral, 80 mg, day 1, n=3, median (min–max); read-out: T max
measured_quantity: Tmax (h)
Answers are plain numbers, in h.

For the compound CN[C@@H](C)C(=O)N[C@H]1CN(C(=O)CC(C)C)CC[C@H]2CC[C@@H](C(=O)NC(c3ccccc3)c3ccccc3)N2C1=O [DEBIO1143] , what Tmax is on record? 2
